# Tested on: rat striatal synaptosomes
# EXPERIMENTAL_DETAILS: Depolarization-evoked glutamate release from striatal synaptosomes
# Format: cell-based
# EXPERIMENTAL_CONTEXT: WIN55,212-2 alone; 30 mM KCl; read-out: EC50 of inhibition of evoked glutamate release
OUTCOME_MEASURE: EC50 (nM)
Supply the numeric figure in nM, leaving out any unit text.

Could you share which EC50 value was measured for Cc1c(C(=O)c2cccc3ccccc23)c2cccc3c2n1[C@H](CN1CCOCC1)CO3 [WIN55,212-2] ? 5.5
